Field: Maximum mean fluorescence intensity. Provide a value for each of the binders that follow.
Target of assay: T1, human MSLN full-length protein (NCBI: AAH09272.1) expressed on HEK293T-hMSLN-B8 cells (human, UniProt Q13421 296-598)
T1 construct: Whole encoded precursor
T1 sequence (Q13421 other isoform, or with tags, fused parts or gaps limits assumed): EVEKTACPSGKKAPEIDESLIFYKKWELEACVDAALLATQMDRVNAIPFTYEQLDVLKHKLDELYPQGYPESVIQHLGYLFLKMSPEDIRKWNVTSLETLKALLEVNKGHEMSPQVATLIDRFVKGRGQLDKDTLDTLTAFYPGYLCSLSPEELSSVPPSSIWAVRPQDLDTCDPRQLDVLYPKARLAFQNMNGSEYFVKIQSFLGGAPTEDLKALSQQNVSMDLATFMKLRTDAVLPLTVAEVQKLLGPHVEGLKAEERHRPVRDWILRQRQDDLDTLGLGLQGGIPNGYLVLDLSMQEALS
Protocol: FACS on HEK293T-hMSLN-B8 cells

Study these solved cases before continuing.
| Binder | Maximum mean fluorescence intensity |
| --- | --- |
| S009-F2.16.10 (antibody, human IgG1, kappa, V domains shown, human-murine chimeric antibody, human IgG1/kappa constant regions) VH: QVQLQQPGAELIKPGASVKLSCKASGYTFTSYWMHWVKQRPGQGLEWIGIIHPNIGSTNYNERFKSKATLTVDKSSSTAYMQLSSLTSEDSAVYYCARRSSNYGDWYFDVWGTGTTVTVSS VL: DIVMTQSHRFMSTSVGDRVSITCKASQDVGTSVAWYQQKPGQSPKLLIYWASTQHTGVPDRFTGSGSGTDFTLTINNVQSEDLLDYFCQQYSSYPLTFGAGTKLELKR | 109000 |
| S009-F2.39.3 (antibody, human IgG1, kappa, V domains shown, human-murine chimeric antibody, human IgG1/kappa constant regions) VH: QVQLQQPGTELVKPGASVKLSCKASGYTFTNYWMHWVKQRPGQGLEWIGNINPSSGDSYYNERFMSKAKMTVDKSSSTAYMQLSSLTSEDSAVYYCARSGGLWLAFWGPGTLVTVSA VL: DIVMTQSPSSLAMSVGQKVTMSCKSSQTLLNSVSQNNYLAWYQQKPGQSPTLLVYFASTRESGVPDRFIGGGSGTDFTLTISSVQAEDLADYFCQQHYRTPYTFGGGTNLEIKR | 138000 |
| S009-F2.23.12 (antibody, human IgG1, kappa, V domains shown, human-murine chimeric antibody, human IgG1/kappa constant regions) VH: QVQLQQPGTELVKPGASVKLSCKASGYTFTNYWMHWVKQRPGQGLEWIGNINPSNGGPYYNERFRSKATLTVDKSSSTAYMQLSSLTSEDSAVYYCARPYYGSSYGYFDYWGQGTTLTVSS VL: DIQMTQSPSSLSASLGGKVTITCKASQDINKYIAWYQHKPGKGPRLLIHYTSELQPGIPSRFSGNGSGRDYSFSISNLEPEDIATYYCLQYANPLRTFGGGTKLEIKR | 144000 |
| S009-F2-56.12 (antibody, human IgG1, kappa, V domains shown, human-murine chimeric antibody, human IgG1/kappa constant regions) VH: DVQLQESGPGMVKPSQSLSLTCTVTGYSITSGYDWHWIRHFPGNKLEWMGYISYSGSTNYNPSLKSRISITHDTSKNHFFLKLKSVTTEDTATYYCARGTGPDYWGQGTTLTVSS VL: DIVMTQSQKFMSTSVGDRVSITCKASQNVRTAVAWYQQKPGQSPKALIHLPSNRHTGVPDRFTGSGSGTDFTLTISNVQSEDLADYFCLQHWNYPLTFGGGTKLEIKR | 67000 |

q: Param item = S009-F2.38.12 (antibody, human IgG1, kappa, V domains shown, human-murine chimeric antibody, human IgG1/kappa constant regions) VH: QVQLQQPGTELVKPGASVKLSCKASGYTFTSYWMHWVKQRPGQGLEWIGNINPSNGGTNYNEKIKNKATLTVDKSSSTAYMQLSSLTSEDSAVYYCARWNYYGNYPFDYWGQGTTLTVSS VL: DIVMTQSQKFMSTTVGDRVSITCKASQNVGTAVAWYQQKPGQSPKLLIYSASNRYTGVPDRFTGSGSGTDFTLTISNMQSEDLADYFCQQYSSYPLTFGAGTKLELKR ; retrieve measured Maximum mean fluorescence intensity.
a: 97700
